// reported pIC50 for each item listed
target: cdk2/cyclinA (Homo sapiens, UniProt P24941); assay: Cyclin-Dependent Kinase Assay cdk2/cyclinA; conditions: cdk2/A IC50
pIC50 is a log-scale quantity: -log10 of the concentration expressed in molar.

// below: answered molecules
>>> print(df.to_string())
                                   molecule  experimental_result
0   CCCn1c(=O)ccc2cnc(Nc3ccc(OC)c(O)c3)nc21                 5.77
1  CCCCn1c(=O)ccc2cnc(Nc3ccc(C)c(Cl)c3)nc21                 6.32
2  CCC(C)n1c(=O)ccc2cnc(Nc3ccc4[nH]ccc4c3)nc21 (stereo not drawn)                 6.84

QUERY: Notebook entry, cdk2/cyclinA (Homo sapiens, UniProt P24941) assay: pIC50 of CCC(C)n1c(=O)ccc2cnc(Nc3ccc(Cl)c(C(F)(F)F)c3)nc21 (stereo not drawn) = ?
RESULT: 6.28

QUERY: Could you do the same for "CCC(CC)n1c(=O)ccc2cnc(Nc3cc(OC)cc(C(F)(F)F)c3)nc21" , please?
RESULT: 5.68

QUERY: Note, next up: "COc1ccc(Nc2ncc3ccc(=O)n(CC(F)(F)F)c3n2)cc1OC"
RESULT: 5.80

QUERY: What do we get for "O=c1ccc2cnc(Nc3cccc(O)c3)nc2n1CC1CC1" ?
RESULT: 6.72

QUERY: Also, "CCC(CC)n1c(=O)ccc2cnc(Nc3ccc4cn[nH]c4c3)nc21" please.
RESULT: 7.24

QUERY: Check "CCCn1c(=O)ccc2cnc(Nc3ccc(O)c(CN4CCOCC4)c3)nc21" too.
RESULT: 5.96

---

biological target: Cdk5/p25 (Homo sapiens, UniProt Q00535); assay: Cyclin-Dependent Kinase 5 High Throughput Screening (cdk5-HTS) Assay; assay type: biochemical; details: high throughput screen
EXPERIMENTAL READOUT: IC50 (nM)
Give just the number in nM; leave the unit off.

Example entries begin here.
>>> df
                                   molecule  experimental_readout  experimental_result
0  CCCn1c(=O)ccc2cnc(Nc3ccc([N+](=O)[O-])cc3F)nc21                  IC50                  375
1  CC(C)n1c(=O)ccc2cnc(Nc3ccc(F)c(Cl)c3)nc21                  IC50                   33
2  O=c1ccc2cnc(Nc3cccc([N+](=O)[O-])c3)nc2n1CC(F)(F)F                  IC50                  785
3  CCn1c(=O)ccc2cnc(Nc3ccc(C#N)c(NC(C)=O)c3)nc21                  IC50                 1000
4   CCn1c(=O)ccc2cnc(Nc3ccc4[nH]ccc4c3)nc21                  IC50                  250

QUERY: What measured IC50 is associated with "CCn1c(=O)ccc2cnc(Nc3ccc(C#N)c(C#N)c3)nc21" on Cdk5/p25 (Homo sapiens, UniProt Q00535)?
RESULT: 430

QUERY: Now the same for CCC(C)n1c(=O)ccc2cnc(Nc3ccc(O)c(Cl)c3)nc21 (stereo not shown)
RESULT: 13

QUERY: Field entry: "CCC(CC)n1c(=O)ccc2cnc(Nc3ccc4c(c3)CCC4)nc21"
RESULT: 27

QUERY: Another molecule: CCC(C)n1c(=O)ccc2cnc(Nc3ccc(OC)cc3)nc21 (stereo not shown)
RESULT: 50.5

QUERY: Try "CCn1c(=O)ccc2cnc(Nc3ccc(F)c(C(F)(F)F)c3)nc21" next.
RESULT: 40

QUERY: Same question, "CCC(CC)n1c(=O)ccc2cnc(Nc3cc(Cl)c(N)c(Cl)c3)nc21" this time
RESULT: 42

QUERY: "CCC(CC)n1c(=O)ccc2cnc(Nc3ccc4cn[nH]c4c3)nc21" , same question.
RESULT: 17.5

QUERY: Note, next up: "CCC(CC)n1c(=O)ccc2cnc(Nc3ccc(O)c(C(=O)O)c3)nc21"
RESULT: 290

QUERY: Likewise for "CCCn1c(=O)ccc2cnc(Nc3ccc(Cl)c(Cl)c3)nc21" ?
RESULT: 230

QUERY: Another molecule to check: "CCn1c(=O)ccc2cnc(Nc3cc(C(F)(F)F)ccc3F)nc21"
RESULT: 650

QUERY: Then what about the molecule "O=c1ccc2cnc(Nc3ccc4[nH]ccc4c3)nc2n1C1CCCC1" ?
RESULT: 36.3

QUERY: Input "COc1cc(Nc2ncc3ccc(=O)n(CC4CC4)c3n2)cc(OC)c1OC"
RESULT: 310

QUERY: And then "CCCn1c(=O)ccc2cnc(Nc3ccc(F)c(Cl)c3)nc21" , what is it?
RESULT: 85.3

---

Below, each of the compounds is paired with its reported melting point value.

Please review the following examples before continuing.
>>> df
                                   compound  experimental_result
0  O=c1ccc2cnc(Nc3cccc(OC(F)(F)C(F)F)c3)nc2n1C1CC2CCC1C2 (stereo not drawn)               192 °C
1    CCn1c(=O)ccc2cnc(Nc3ccc(OC)c(F)c3)nc21        196 to 198 °C
2  O=c1ccc2cnc(Nc3ccc(N4CCC(CCN5CCOCC5)CC4)cc3)nc2n1C1CC2CCC1C2 (stereo not drawn)        223 to 224 °C

QUERY: Give its melting point value. Item: O=c1ccc2cnc(Nc3ccc(N4CCCC(CCCN5CCOCC5)C4)cc3)nc2n1C1CC2CCC1C2 (stereo not drawn)
RESULT: 156 to 157 °C

QUERY: Follow-up item: "CCN1C(=O)CCc2cnc(Nc3ccccc3)nc21"
RESULT: 146 to 147 °C

QUERY: Quick one: "O=c1ccc2cnc(NC3CCCCC3)nc2n1C1CCCCC1"
RESULT: 169 to 170 °C

QUERY: Ok, now "O=c1ccc2cnc(Nc3ccc(N4CCCCC4)cc3)nc2n1C1CCOCC1"
RESULT: 254 to 255 °C

QUERY: And the next one, "O=c1ccc2cnc(Nc3ccc(-n4cccn4)cc3)nc2n1C1CCCCC1" ?
RESULT: 241 to 242 °C

QUERY: Do the same for "CCNc1nc(Nc2ccccc2)ncc1C=CC#N" please
RESULT: 244 to 246 °C

---

target: cdc2/cyclinB (Homo sapiens); test: Cyclin-Dependent Kinase Assay cdc2/cyclinB; settings: read-out: cdk1/B IC50
Sequence (P06493 whole entry): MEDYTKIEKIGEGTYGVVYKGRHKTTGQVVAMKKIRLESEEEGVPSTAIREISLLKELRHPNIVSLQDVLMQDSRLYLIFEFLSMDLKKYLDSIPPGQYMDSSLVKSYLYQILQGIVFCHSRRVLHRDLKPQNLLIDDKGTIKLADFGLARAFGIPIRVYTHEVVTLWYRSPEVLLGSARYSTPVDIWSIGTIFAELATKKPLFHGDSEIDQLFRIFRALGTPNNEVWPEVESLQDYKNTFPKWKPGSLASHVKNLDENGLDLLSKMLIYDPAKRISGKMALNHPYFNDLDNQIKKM
Sequence (P14635 whole entry, further chain): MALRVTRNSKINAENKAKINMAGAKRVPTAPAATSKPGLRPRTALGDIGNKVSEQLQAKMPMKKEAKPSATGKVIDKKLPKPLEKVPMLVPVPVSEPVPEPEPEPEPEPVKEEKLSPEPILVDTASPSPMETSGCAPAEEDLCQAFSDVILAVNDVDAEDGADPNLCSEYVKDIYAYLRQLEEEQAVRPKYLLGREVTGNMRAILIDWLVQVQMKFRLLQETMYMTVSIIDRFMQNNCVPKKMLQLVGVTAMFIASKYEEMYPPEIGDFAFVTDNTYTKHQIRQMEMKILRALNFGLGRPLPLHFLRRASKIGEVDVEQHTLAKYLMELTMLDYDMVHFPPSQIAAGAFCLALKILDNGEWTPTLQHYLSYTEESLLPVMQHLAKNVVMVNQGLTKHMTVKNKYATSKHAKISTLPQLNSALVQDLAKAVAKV
EXPERIMENTAL READOUT: IC50 (µM)
Write the number in µM without appending the unit.

>>> df
                                   molecule  experimental_readout  result_unit  experimental_result
0  CCCCn1c(=O)ccc2cnc(Nc3ccc(C(N)=O)cc3)nc21 [Example 371]                  IC50           µM                0.372

QUERY: // query IC50 value for entry CCCn1c(=O)ccc2cnc(Nc3ccc(Cl)c(C(F)(F)F)c3)nc21 [Example 312]
RESULT: 0.268

---

target: Cdk5/p25 (Homo sapiens); test: Cyclin-Dependent Kinase 5 (cdk5) Assay; assay type: biochemical; conditions: Table 1
Consider the cut-off 100 nM. If the recorded IC50 is strictly smaller, the label is 1.0; if not, the label is 0.0.

>>> print(df.to_string())
                                   compound  assigned_category
0  CCN(CC)CCOc1ccc(Nc2ncc3ccc(=O)n(C4CC4)c3n2)cc1                0.0
1  CN(C)c1ccc(Nc2ncc3ccc(=O)n(C4CCCCC4)c3n2)cc1                1.0
2  O=c1ccc2cnc(Nc3cccc(N4CCCCC4)c3)nc2n1C1CCCC1                1.0
3        CCn1c(=O)ccc2cnc(Nc3ccc(F)cc3)nc21                1.0
4  O=c1ccc2cnc(Nc3ccc(N4CCC(CCO)CC4)cc3)nc2n1C1CCCC1                0.0
5  CN1CCN(c2ccc(Nc3ncc4ccc(=O)n(C5CC6CCC5C6)c4n3)cc2)CC1 (stereo not shown)                1.0

QUERY: Could you please tell me whether IC50 recorded for O=c1ccc2cnc(Nc3ccc(OC(F)(F)C(F)F)cc3)nc2n1C1CC2CCC1C2 (stereo not shown) is less than 100 nM?
RESULT: 0.0

---

molecular target: cdk2/cyclinE (Homo sapiens); assay: Cyclin-Dependent Kinase Assay cdk2/cyclinE; settings: cdk2/E IC50
pIC50: −log10 of the molar value.
pIC50 below 7 gives condition not met; pIC50 at or above it gives condition met.

Here are 10 compounds together with their reported answers.
>>> df
                                   compound  assigned_category
0   CC(C)n1c(=O)ccc2cnc(Nc3ccc(C#N)cc3)nc21  condition not met
1  CC(=O)Nc1cc(Nc2ncc3ccc(=O)n(C4CCCC4)c3n2)ccc1C  condition not met
2    CCCn1c(=O)ccc2cnc(Nc3ccc(F)c(C)c3)nc21      condition met
3  CCC(CC)n1c(=O)ccc2cnc(Nc3ccc(OC)c(OC)c3)nc21      condition met
4  CCn1c(=O)ccc2cnc(Nc3cc(Cl)c(O)c(Cl)c3)nc21  condition not met
5  O=c1ccc2cnc(Nc3ccc4nn[nH]c4c3)nc2n1CC(F)(F)F  condition not met
6  CC(C)n1c(=O)ccc2cnc(Nc3cc([N+](=O)[O-])ccc3F)nc21  condition not met
7  CC(=O)N(C)c1ccc(Nc2ncc3ccc(=O)n(C(C)C)c3n2)cc1  condition not met
8   CCn1c(=O)ccc2cnc(Nc3ccc4[nH]ncc4c3)nc21  condition not met
9  O=c1ccc2cnc(Nc3ccc(Cl)c(C(F)(F)F)c3)nc2n1C1CCCC1  condition not met

QUERY: Check if pIC50 >= 7 (inclusive). Item: CCC(C)n1c(=O)ccc2cnc(Nc3ccccc3)nc21 (stereo not shown)
RESULT: condition not met

QUERY: And what about the compound "CCCn1c(=O)ccc2cnc(Nc3cc(F)c(F)c(F)c3)nc21" ?
RESULT: condition not met

QUERY: One more compound: "CCn1c(=O)ccc2cnc(Nc3cc(C(F)(F)F)ccc3F)nc21"
RESULT: condition not met

QUERY: What do you get for "CCCCn1c(=O)ccc2cnc(Nc3cccc(I)c3)nc21" ?
RESULT: condition met

QUERY: Another compound to look at: CCC(C)n1c(=O)ccc2cnc(Nc3cc([N+](=O)[O-])ccc3F)nc21 (stereo not shown)
RESULT: condition not met

QUERY: Now give it for "CCn1c(=O)ccc2cnc(Nc3ccc(S(N)(=O)=O)cc3)nc21" too.
RESULT: condition met

QUERY: Moving on to "CC(=O)Nc1cc(Nc2ncc3ccc(=O)n(C(C)C)c3n2)ccc1C"
RESULT: condition not met

QUERY: Same for "CCCn1c(=O)ccc2cnc(Nc3cccc(NC(C)=O)c3)nc21"
RESULT: condition not met

QUERY: What do we get for "CCC(CC)n1c(=O)ccc2cnc(Nc3cc(C)c(O)c(C)c3)nc21" ?
RESULT: condition met

QUERY: Could you do the same for CCC(C)n1c(=O)ccc2cnc(Nc3ccc4[nH]nnc4c3)nc21 (stereo not shown) , please?
RESULT: condition met

QUERY: Field entry: "O=c1ccc2cnc(Nc3cc(Cl)c(O)c(Cl)c3)nc2n1CC1CC1"
RESULT: condition met

QUERY: Queued: "CCn1c(=O)ccc2cnc(Nc3cc(F)cc(F)c3)nc21"
RESULT: condition not met

QUERY: Now consider "COc1cc(Nc2ncc3ccc(=O)n(CC4CC4)c3n2)cc(OC)c1OC" and answer again.
RESULT: condition not met

QUERY: Queued: "CC(C)n1c(=O)ccc2cnc(Nc3ccc(O)c(CN4CCOCC4)c3)nc21"
RESULT: condition not met

QUERY: Moving on to "CCC(CC)n1c(=O)ccc2cnc(Nc3ccc(F)cc3F)nc21"
RESULT: condition not met
